B1: library; a variant is named by its letters at N, in order (parent)
chain: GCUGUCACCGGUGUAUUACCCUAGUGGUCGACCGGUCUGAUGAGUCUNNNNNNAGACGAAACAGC

Variants of: B1
TEST_SUMMARY: normalized RNA/DNA level with ligand (relative to sTRSVctl = 100) (log10 (% of sTRSVctl)); ligand: hypoxanthine (xanthine aptamer); higher = less ribozyme self-cleavage, higher mRNA level
DETAILS: ligand concentration (+) RNA-Seq: 5 mM, HEK293T, reporter: mCherry (pCS4076), ligand present: yes
normalized RNA/DNA level with ligand (log10) listing for selected variants.
Please respond with just the number, no unit label.

Worked cases, normalized RNA/DNA level with ligand (log10) given:
MUTATION_DESCRIPTOR: CGUAUG
OBS_VALUE: 1.91

MUTATION_DESCRIPTOR: UUACUG
OBS_VALUE: 1.93

MUTATION_DESCRIPTOR: ACCUAG
OBS_VALUE: 1.86

MUTATION_DESCRIPTOR: UACUUA
OBS_VALUE: 1.95

MUTATION_DESCRIPTOR: AGCUGU
OBS_VALUE: 1.94

Notebook: AAAUCA , normalized RNA/DNA level with ligand (log10) read as 1.93

Entry ACGGUC — recorded normalized RNA/DNA level with ligand (log10) = 1.94
